System: Alternaria alternata
Test: Alternaria alternata in vitro cell test
Format: cell-based
Conditions: 120 h, 20 ppm of active ingredient, 5 days incubation, read-out: efficacy (inhibition of fungal growth)
Experimental: • Solvent: DMSO • Culture medium: 14.6 g anhydrous D-glucose (VWR), 7.1 g Mycological Peptone (Oxoid), 1.4 g granulated Yeast Extract (Merck), QSP 1 liter • Inoculum: spores suspension […] Fungicides were evaluated for their ability to inhibit spore germination and mycelium growth in liquid culture assay. […] After 5 days incubation, fungi-toxicity of compounds was determined by spectrometric measurement of mycelium growth. […]
Measured parameter: inhibition at 20 ppm

# example entries with known answers
Compound | inhibition at 20 ppm
COC(=O)CNC(=S)c1sc(Cl)c(Cl)c1Cl | ≤ 30%
CCSC(=O)C1(NC(=O)c2sc(Cl)c(Cl)c2Cl)CC1 | ≤ 30%

// moving on: another record for inhibition at 20 ppm
Q: # value lookup — system Alternaria alternata, readout inhibition at 20 ppm, item CCOC(=O)C(CSC)NC(=O)c1sc(Cl)c(Cl)c1Cl (stereo not drawn)
Result: ≤ 30%

====

system: Xanthomonas campestris pv. campestris; experiment: Xanthomonas campestris pv. campestris in vitro cell test; type: cell-based; conditions: 20 ppm of active ingredient, 24 h incubation, read-out: efficacy (inhibition of bacteria growth)
The reader will find reported inhibition at 20 ppm values listed item by item below.

Compound | inhibition at 20 ppm
COC(=O)[C@H](CC(=O)OC(C)(C)C)NC(=O)c1sc(Cl)c(Cl)c1Cl [I.136] | ≤ 30%
COC(=O)[C@H](CC(N)=O)NC(=O)c1sc(Cl)c(Cl)c1Cl [I.015] | ≤ 30%

Q: Any idea what inhibition at 20 ppm was measured for CCOC(=O)C(CC(F)(F)F)NC(=O)c1sc(Cl)c(Cl)c1Cl (stereo not drawn) [I.048] ?
Result: ≤ 30%

====

assay: LogP by HPLC on reversed phase columns (EEC directive 79/831 Annex V.A8); type: physicochemical
Measured parameter: LogP

# example entries with known answers
Input smiles | LogP
CN(C)C(=S)CNC(=O)c1sc(Cl)c(Cl)c1Cl | 3.68^[a]
CC(C)(C#N)NC(=O)c1sc(Cl)c(Cl)c1Cl | 3.19^[a]
O=C(NC1(C(=O)OC2CCCCC2)CCC1)c1sc(Cl)c(Cl)c1Cl | 5.84^[a]
O=C(N[C@H]1CCCNC1=O)c1sc(Cl)c(Cl)c1Cl | 2.24^[a]

// moving on: another record for LogP
Q: Any idea what LogP was measured for N#CCNC(=O)CNC(=O)c1sc(Cl)c(Cl)c1Cl ?
Result: 2.21^[a]

====

The reader will find reported LogP values listed item by item below.
assay: LogP by HPLC on reversed phase columns (EEC directive 79/831 Annex V.A8); format: physicochemical

Compound | Recorded value
N#CC(Cc1ccccc1)NC(=O)c1sc(Cl)c(Cl)c1Cl (stereo not shown) [I.035] | 4.13^[a]
CCCOC(=O)C1(NC(=O)c2sc(Cl)c(Cl)c2Cl)CCC1 [I.101] | 4.74^[a]
O=C(CNC(=O)c1sc(Cl)c(Cl)c1Cl)Sc1ccccc1 [I.042] | 4.27^[a]
CNC(=O)CNC(=O)c1sc(Cl)c(Cl)c1Cl [I.073] | 2.07^[a]
CCOC(=O)CCNC(=O)c1sc(Cl)c(Cl)c1Cl [I.026] | 3.46^[a]

Q: Any idea what LogP was measured for N#CNC(=O)C1(NC(=O)c2sc(Cl)c(Cl)c2Cl)CC1 [I.107] ?
Result: 2.57^[a]

Q: Any idea what LogP was measured for O=C1CC(NC(=O)c2sc(Cl)c(Cl)c2Cl)CCN1 (stereo not shown) [I.030] ?
Result: 1.93^[a]

====

assay: LogP by HPLC on reversed phase columns (EEC directive 79/831 Annex V.A8); type: physicochemical; details: reversed phase HPLC columns, method [a]: LC-UV, in an acidic range, with 0.1% formic acid in water and acetonitrile as eluent (linear gradient from 10% to 95% acetonitrile)
Mark false (0) for chromatographic logP values under 3, and true (1) for everything at or above.

// below: answered compounds
Compound | Label class
COC(=O)C(Cc1c[nH]cn1)NC(=O)c1sc(Cl)c(Cl)c1Cl (stereo not drawn) | false (0)
CCNC(=O)[C@H](C)NC(=O)c1sc(Cl)c(Cl)c1Cl | false (0)
CCOC(=O)C(COC)NC(=O)c1sc(Cl)c(Cl)c1Cl (stereo not drawn) | true (1)
CCSC(=O)C1(NC(=O)c2sc(Cl)c(Cl)c2Cl)CC1 | true (1)
CNC(=O)[C@H](C)NC(=O)c1sc(Cl)c(Cl)c1Cl | false (0)
COC(=O)[C@H](CCCNC(=N)N)NC(=O)c1sc(Cl)c(Cl)c1Cl | false (0)
CCSC(=O)[C@H](C)NC(=O)c1sc(Cl)c(Cl)c1Cl | true (1)
CCOC(=O)C(Cc1c[nH]c2ccccc12)NC(=O)c1sc(Cl)c(Cl)c1Cl (stereo not drawn) | true (1)

Here's the next entry for you.
Q: # bool: chromatographic logP of O=C(O)CNC(=S)c1sc(Cl)c(Cl)c1Cl >= 3
Result: true (1)
